tested-system: GluR7a (Rattus norvegicus)
Construct: expressed in transfected cells; host or cells: HEK-293-T/17
Sequence (P42264 32-919): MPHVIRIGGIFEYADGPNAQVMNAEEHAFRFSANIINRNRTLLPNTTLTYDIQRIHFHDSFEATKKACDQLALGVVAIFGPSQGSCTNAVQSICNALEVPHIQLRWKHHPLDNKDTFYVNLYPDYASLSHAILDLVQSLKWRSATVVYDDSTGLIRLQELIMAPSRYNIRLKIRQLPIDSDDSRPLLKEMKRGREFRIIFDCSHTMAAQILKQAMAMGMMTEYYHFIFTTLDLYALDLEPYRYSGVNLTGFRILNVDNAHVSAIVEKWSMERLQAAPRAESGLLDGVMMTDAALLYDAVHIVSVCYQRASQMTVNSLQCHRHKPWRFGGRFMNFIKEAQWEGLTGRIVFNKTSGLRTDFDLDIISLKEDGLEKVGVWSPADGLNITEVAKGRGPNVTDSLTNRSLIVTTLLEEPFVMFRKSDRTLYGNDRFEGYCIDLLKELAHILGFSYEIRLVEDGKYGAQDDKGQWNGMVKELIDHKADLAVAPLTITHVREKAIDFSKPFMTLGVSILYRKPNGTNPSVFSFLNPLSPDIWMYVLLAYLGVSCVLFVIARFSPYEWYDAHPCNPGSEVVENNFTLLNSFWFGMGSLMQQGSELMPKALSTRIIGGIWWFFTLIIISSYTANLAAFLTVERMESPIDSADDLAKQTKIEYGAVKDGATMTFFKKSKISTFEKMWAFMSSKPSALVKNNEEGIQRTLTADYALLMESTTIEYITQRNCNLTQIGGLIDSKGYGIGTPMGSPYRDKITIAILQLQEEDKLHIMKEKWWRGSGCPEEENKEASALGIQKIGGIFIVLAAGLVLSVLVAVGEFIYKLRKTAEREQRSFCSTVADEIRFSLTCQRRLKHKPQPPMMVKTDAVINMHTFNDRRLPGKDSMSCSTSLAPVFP
run-description: Radioligand binding ([3H]kainate displacement), HEK-293-T/17 membranes, Example 2
readout-name: Ki (nM)
Numbers only, in nM.

The recorded Ki for entry N[C@@H](C[C@]1(C(=O)O)C[C@H]2OC[C@@H](O)C[C@H]2O1)C(=O)O equals 2900

* * *

tested-system: GluR7a (Rattus norvegicus)
Construct: expressed in transfected cells; host or cells: HEK-293-T/17
run-description: Radioligand binding ([3H]kainate displacement), HEK-293-T/17 membranes, Example 2
test-settings: [3H]kainate displacement; Cheng-Prusoff; read-out: Ki GluR7a
pKi: −log10 of the molar value.
readout-name: pKi

Check out these entries, answers already filled in.
{"compound": "NC(CC1(C(=O)O)CC2OCC(O)C(O)C2O1)C(=O)O (stereo not drawn) [9-epi-neoDH, 9-epi-neodysiherbaine]", "tested-system": "GluR7a (Rattus norvegicus)", "pKi": "< 4.00"}
{"compound": "N[C@@H](C[C@]1(C(=O)O)C[C@H]2OCC[C@@H](O)[C@H]2O1)C(=O)O", "tested-system": "GluR7a (Rattus norvegicus)", "pKi": "< 4.00"}
{"compound": "NC(CC1(C(=O)O)CC2OCC(O)C(O)C2O1)C(=O)O (stereo not drawn) [8-epi-neoDH, 8-epi-neodysiherbaine]", "tested-system": "GluR7a (Rattus norvegicus)", "pKi": 5.77}

Now look at this entry.
Measured pKi for this entry NC(CC1(C(=O)O)CC2OCC(O)C(O)C2O1)C(=O)O (stereo not drawn) [8,9-epi-neoDH, 8,9-epi-neodysiherbaine] on GluR7a (Rattus norvegicus): < 4.00

* * *

tested-system: GluR6a (Rattus norvegicus)
Construct: expressed in transfected cells; host or cells: HEK-293-T/17
Sequence (P42260 32-908): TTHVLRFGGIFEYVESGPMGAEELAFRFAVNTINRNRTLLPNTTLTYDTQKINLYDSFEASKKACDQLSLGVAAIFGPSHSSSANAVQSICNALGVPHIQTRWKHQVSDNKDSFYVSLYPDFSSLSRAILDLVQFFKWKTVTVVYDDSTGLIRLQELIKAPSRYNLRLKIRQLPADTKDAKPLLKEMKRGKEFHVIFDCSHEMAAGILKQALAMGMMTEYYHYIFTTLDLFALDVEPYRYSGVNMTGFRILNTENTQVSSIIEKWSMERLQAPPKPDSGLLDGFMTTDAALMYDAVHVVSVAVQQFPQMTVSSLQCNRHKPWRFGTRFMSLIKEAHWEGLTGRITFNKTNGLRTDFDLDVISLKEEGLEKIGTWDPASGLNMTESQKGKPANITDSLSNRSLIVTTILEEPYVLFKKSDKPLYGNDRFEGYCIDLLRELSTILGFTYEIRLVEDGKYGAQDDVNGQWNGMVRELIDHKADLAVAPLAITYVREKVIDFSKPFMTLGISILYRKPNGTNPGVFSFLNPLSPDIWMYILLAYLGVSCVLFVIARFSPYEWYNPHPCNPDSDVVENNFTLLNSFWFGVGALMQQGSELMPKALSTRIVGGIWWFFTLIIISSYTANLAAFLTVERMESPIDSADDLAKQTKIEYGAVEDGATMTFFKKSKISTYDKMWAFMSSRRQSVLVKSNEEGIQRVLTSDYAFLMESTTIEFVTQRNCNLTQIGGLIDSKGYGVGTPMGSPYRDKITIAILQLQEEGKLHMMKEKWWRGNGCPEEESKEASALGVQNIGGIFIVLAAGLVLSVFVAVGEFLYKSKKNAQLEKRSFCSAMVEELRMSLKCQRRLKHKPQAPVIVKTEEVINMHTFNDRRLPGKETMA
run-description: Radioligand binding ([3H]kainate displacement), HEK-293-T/17 membranes, Example 2
test-settings: [3H]kainate displacement; Cheng-Prusoff; read-out: Ki GluR6a
pKi: −log10 of the molar value.
Hi there, I'd appreciate the recorded pKi for every entry that follows.

Check out these entries, answers already filled in.
{"compound": "NC(CC1(C(=O)O)CC2OCC(O)C(O)C2O1)C(=O)O (stereo not drawn) [9-epi-neoDH, 9-epi-neodysiherbaine]", "meas-value": "< 4.00"}
{"compound": "N[C@@H](C[C@]1(C(=O)O)C[C@H]2OCC[C@@H](O)[C@H]2O1)C(=O)O", "meas-value": "< 4.00"}
{"compound": "NC(CC1(C(=O)O)CC2OCC(F)C(O)C2O1)C(=O)O (stereo not drawn) [9-F-8-epi-neoDH]", "meas-value": "< 4.00"}

Now look at this entry.
The recorded pKi for entry NC(CC1(C(=O)O)CC2OCC(O)C(O)C2O1)C(=O)O (stereo not drawn) [8,9-epi-neoDH, 8,9-epi-neodysiherbaine] equals < 4.00
